assay_target: PTP1B (1–321) (Homo sapiens, UniProt P18031)
experimental_protocol: PTP1B inhibition assay with DiFMUP as substrate
setup_conditions: read-out: IC50 PTP1B; means ± SD of three replications
value_kind: IC50
Just so you know, I need the unit written after the number.

Q: Value wanted: IC50 (PTP1B (1–321) (Homo sapiens, UniProt P18031)) of entry "O=S(=O)(O)c1ccc2cc(N=Nc3cc(S(=O)(=O)O)c4cccnc4c3O)ccc2c1"
Ans: 26.2 µM

----------
assay_target: PTP1B (1–321) (Homo sapiens)
Sequence (P18031 1-321): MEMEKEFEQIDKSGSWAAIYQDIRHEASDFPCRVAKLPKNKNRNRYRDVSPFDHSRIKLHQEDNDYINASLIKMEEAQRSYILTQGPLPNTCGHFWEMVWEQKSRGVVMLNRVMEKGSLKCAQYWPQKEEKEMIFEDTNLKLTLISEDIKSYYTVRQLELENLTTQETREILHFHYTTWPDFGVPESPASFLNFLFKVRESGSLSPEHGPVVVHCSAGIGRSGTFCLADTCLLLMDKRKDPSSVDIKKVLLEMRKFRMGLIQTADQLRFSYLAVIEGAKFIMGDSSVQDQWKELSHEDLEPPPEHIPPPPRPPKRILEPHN
experimental_protocol: PTP1B inhibition assay with DiFMUP as substrate
setup_conditions: PTP1B, Table 3, means ± SD of three replications
value_kind: pIC50
Answers are plain numbers, as −log10 of the molar value.

Q: Need pIC50, item O=S(=O)(O)c1ccc2cc(N=Nc3cc(S(=O)(=O)O)c4cccnc4c3O)ccc2c1 [NSC-87877]
Ans: 4.58
